target.system: glucosylceramide synthase (Homo sapiens, UniProt Q16739)
Construct: Microsomes were isolated from A375 human melanoma cells; endogenous in cells
Sequence (Q16739 1-394): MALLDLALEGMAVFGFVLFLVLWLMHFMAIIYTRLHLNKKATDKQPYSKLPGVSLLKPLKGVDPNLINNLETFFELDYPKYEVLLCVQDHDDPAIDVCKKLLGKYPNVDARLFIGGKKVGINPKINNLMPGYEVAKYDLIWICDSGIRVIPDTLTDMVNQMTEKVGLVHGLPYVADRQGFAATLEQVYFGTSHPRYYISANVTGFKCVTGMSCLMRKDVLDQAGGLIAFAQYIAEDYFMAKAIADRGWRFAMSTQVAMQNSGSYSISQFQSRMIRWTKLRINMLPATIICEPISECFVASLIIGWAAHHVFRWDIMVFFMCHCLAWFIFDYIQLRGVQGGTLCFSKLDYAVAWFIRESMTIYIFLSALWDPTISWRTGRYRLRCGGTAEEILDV
assay.details: microsomal assay measuring conversion of ceramide to glucosylceramide by HPLC (GCS IC50)
experimental.setup: concentration causing 50% inhibition of glucosylceramide synthase activity
So basically every entry gets a class from its IC50, ranges being low class = under 0.004 µM, middle class = from 0.004 µM up to 0.03 µM, high class = 0.03 µM and over

compound | class.assignment
CC(C)(NC(=O)OC1CCN2CCC1CC2)c1ccc(-c2ccc(S(=O)(=O)CC3CC3)cc2)cc1 (stereo not shown) | middle class
COCCOCc1ccc(-c2ccc(C(C)(C)NC(=O)OC3CN4CCC3CC4)cc2)cc1 (stereo not shown) | high class
CC1(NC(=O)N2CCC(c3cccc(-c4ccccc4)c3)CC2)CCN2CCC1CC2 (stereo not shown) | high class
COCCOc1ccc(-c2ccnc(N3CCC(C(=O)NC4(C)CCN5CCC4CC5)CC3)n2)cc1 (stereo not shown) | low class
CC(C)(NC(=O)N1CCN2CCC1CC2)c1ccc(-c2ccc(OCCCn3ccnn3)cc2)cc1 | high class
CC(C)(C)CCS(=O)(=O)c1ccc(C#CC(C)(C)NC(=O)NC2(C)CN3CCC2CC3)cc1 (stereo not shown) | middle class
CC1(NC(=O)C2CCN(c3cncc(-c4ccc(F)cc4)n3)CC2)CCN2CCC1CC2 (stereo not shown) [Example 46] | low class
CC1(NC(=O)C2(F)CCN(c3ncc(OCc4ccc(F)cc4)cn3)CC2)CCN2CCC1CC2 (stereo not shown) | middle class
CCC1(NC(=O)NC2(c3ccc(-c4ccc(COCCOC)cc4)cc3)CC2)CN2CCC1CC2 (stereo not shown) [Example 206] | middle class
CCC1(NC(=O)NC(C)(C)C#Cc2ccc(COCc3cccnc3)cc2)CN2CCC1CC2 (stereo not shown) | high class
CC(C)(C)CCS(=O)(=O)c1ccc(C#CC(C)(C)NC(=O)OC2CN3CCC2CC3)cc1 (stereo not shown) | high class
COCCOCc1ccc(-c2ccc(C3(NC(=O)NC4(C)CCN5CCC4CC5)CC3)cc2)cc1 (stereo not shown) | middle class
CCC1(NC(=O)NC(C)(C)C#Cc2ccc(COC)cc2)CN2CCC1CC2 (stereo not shown) | high class
COCCCOc1ccc(-c2nc(N3CC(C(=O)NC4(C)CCN5CCC4CC5)C3)ncc2F)cc1 (stereo not shown) | low class
CC1(NC(=O)C2CCN(c3cncc(-c4ccc(F)cc4)n3)CC2)CCN2CCC1CC2 (single isomer, unassigned) [Example 48] | low class
COCCCOc1ccc(-c2ccnc(N3CCC(C(=O)NC4CN5CCC4CC5)CC3)n2)cc1 (stereo not shown) | low class
